Origin of measurements: patent US5807889A

TESTED_SYSTEM: 5-HT1A receptors (Rattus norvegicus, UniProt P19327)
Sequence (P19327 1-422): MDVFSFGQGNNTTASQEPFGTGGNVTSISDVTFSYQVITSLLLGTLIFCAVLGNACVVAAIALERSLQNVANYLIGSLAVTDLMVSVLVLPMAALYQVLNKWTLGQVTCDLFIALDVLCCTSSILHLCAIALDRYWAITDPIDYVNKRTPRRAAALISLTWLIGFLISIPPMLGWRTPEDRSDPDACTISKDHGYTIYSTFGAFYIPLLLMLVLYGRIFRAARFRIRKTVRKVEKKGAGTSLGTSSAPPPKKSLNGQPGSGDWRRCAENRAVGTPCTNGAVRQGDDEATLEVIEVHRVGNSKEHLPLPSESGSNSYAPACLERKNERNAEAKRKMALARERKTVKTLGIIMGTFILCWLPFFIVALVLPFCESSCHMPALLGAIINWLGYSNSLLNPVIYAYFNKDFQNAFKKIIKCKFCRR
ASSAY_PROCEDURE: Inhibition of 3H-8-OH-DPAT binding to serotonin 5-HT1A receptors in rat brain in vitro
Set-up: 5-HT1A receptors in membranes from rat brain minus cerebellum; from tissue; host or cells: brain minus cerebellum of male Wistar (Mol:Wist) rats, crude membranes; species or system rat (male Wistar)
CONDITION_INFO: 3H 8-OH DPAT binding IC50, 1 nM 3H-8-OH-DPAT, rat brain minus cerebellum membranes, 37° C., 15 min
OBSERVED_PROPERTY: pIC50
Please keep in mind that pIC50 is minus log10 of the molar concentration; only the number is needed.

Examples with their reported pIC50 follow.
CCCN(CCC)CC1CCc2ccc(NC(=O)N(C)C)cc21 (single isomer, unassigned; (-)) [Compound 10c] | 8.09
CC(=O)Nc1ccc2c(c1)C(CN(C)CCCCN1CCN(C3CCCCC3)C1=O)CC2 (stereo not drawn) [Compound 13f] | 8.29
O=CNc1ccc2c(c1)C(CN1CCCCC1)CC2 (stereo not drawn) | 7.38
CCCN(CCC)CC1CCc2cc(Cl)c(NC(C)=O)cc21 (single isomer, unassigned; (+)) [Compound 11c] | 7.85

**Q:** Which pIC50 is reported for this compound? CCCN(CCC)CC1CSc2ccc(NC=O)cc21 (stereo not drawn)
**A:** 8.47

**Q:** Form field: reported pIC50 of CC(=O)Nc1ccc2c(c1)C(CN(C)CCN1CCN(c3ccc(F)cc3)C1=O)CC2 (stereo not drawn) [Compound 13e]
**A:** 7.57

----------
A collection of compounds and their measured ED50
TESTED_SYSTEM: UniProtKB P19327
Sequence (P19327 1-422): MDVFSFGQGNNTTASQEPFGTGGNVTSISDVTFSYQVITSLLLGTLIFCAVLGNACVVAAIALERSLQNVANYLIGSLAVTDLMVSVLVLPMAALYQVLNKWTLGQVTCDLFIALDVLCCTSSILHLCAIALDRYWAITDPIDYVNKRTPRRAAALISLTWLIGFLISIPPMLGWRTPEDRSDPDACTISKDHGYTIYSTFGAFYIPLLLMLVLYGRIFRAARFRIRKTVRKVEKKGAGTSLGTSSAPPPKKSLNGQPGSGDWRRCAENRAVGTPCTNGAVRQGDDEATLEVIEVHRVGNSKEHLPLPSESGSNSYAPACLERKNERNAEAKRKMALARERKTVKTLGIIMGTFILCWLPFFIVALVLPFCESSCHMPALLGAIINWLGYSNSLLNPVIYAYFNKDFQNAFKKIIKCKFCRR
ASSAY_PROCEDURE: 8-OH DPAT cue agonism in rats (drug discrimination)
Assay type: in vivo, male Wistar rats
Parameters: agonist effects of a test compound on 5-HT1A receptors in vivo; from tissue; host or cells: living male Wistar rats (endogenous receptor, in vivo)
CONDITION_INFO: sc, read-out: 8-OH DPAT Cue Agonism ED50, rats, s.c., usually 30 or 45 min before test
Field: numeric (µmol/kg). Do not append units.

CC(=O)Nc1ccc2c(c1)C(CN(C)CCCCc1ccccc1)CC2 (centres unmarked) [Compound 13b] | 0.22
O=CNc1ccc2c(c1)C(CN1CCCCC1)CC2 (centres unmarked) | 0.33
CCCN(CCC)CC1CCc2ccc(NC(=O)c3ccc(F)cc3)cc21 (centres unmarked) | 2.2

**Q:** So what's the measured ED50 for this one? CCCN(CCC)CC1CCc2cc(Cl)c(NC(C)=O)cc21 (centres unmarked) [Compound 11a]
**A:** 0.26

**Q:** If you can, please state the reported ED50 value of CC(=O)Nc1ccc2c(c1)C(CN(C)C)CC2 (centres unmarked) .
**A:** 0.21

**Q:** I'd like to know its ED50. The compound in question is CC(=O)Nc1ccc2c(c1)C(CN(C)CCN1CCNC1=O)CC2 (centres unmarked) [Compound 13d]
**A:** 0.61

**Q:** May I ask what ED50 has been recorded for CCCN(CCC)CC1CSc2ccc(NC=O)cc21 (centres unmarked) ?
**A:** 0.046

**Q:** Given CCCN(CCC)CC1CCc2cc(Cl)c(NC(C)=O)cc21 (single isomer, unassigned; (-)) [Compound 11b] , state its recorded ED50.
**A:** 0.44

**Q:** Recorded ED50 of CN(C)CC1CCc2ccc(NC=O)cc21 (centres unmarked) , please.
**A:** 0.41

**Q:** Name the reported ED50 value associated with the compound CCCN(CCC)CC1CCc2ccc(NC(=O)N(C)C)cc21 (centres unmarked)
**A:** 0.42

**Q:** Consider the compound shown here: CCCN(CCC)CC1CCc2ccc(NC=O)cc21 (centres unmarked) What is its recorded ED50?
**A:** 0.0052

----------
TESTED_SYSTEM: UniProtKB P19327
Sequence (P19327 1-422): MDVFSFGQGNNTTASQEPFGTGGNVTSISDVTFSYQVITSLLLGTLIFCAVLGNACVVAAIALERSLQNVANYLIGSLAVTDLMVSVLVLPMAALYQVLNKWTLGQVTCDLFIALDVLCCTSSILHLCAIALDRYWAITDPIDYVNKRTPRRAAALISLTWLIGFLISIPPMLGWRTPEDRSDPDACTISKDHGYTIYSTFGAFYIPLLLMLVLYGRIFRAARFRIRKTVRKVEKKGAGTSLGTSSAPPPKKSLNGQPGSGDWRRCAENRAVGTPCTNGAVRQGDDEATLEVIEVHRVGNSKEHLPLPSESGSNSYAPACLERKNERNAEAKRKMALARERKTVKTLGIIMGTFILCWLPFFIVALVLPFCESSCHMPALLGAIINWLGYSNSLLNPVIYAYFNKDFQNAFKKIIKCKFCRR
ASSAY_PROCEDURE: 8-OH DPAT cue agonism in rats (drug discrimination)
Type: in vivo, male Wistar rats
Parameters: agonist effects of a test compound on 5-HT1A receptors in vivo; from tissue; host or cells: living male Wistar rats (endogenous receptor, in vivo)
CONDITION_INFO: sc, read-out: 8-OH DPAT Cue Agonism ED50, rats, s.c., usually 30 or 45 min before test
The entries below are paired with their reported ED50.
Report as a plain number; the unit µmol/kg is understood.

CC(=O)Nc1ccc2c(c1)C(CN(C)CCCCc1c[nH]c3ccccc13)CC2 (centres unmarked) [Compound 13c] | 0.66

**Q:** Fill blank: measured ED50 of the compound CC(=O)Nc1ccc2c(c1)C(CN(C)CCCCC1CCCCC1)CC2 (centres unmarked) [Compound 13a] is ____.
**A:** 0.15

**Q:** Quick one: ED50 for CCCN(CCC)C1CCc2cccc(O)c2C1 (centres unmarked) [8-OH DPAT, 8-hydroxy-2-dipropylaminotetralin, reference compound] ?
**A:** 0.1

**Q:** What ED50 value was documented for this compound, CCCN(CCC)CC1CCc2ccc(NS(C)(=O)=O)cc21 (centres unmarked) [Compound 2g] ?
**A:** 0.93

**Q:** // ED50 lookup, key: CCCN(CCC)CC1CCc2ccc(NC(C)=O)cc21 (centres unmarked) [Compound 2a]
**A:** 0.01

----------
TESTED_SYSTEM: 5-HT1A receptors (Rattus norvegicus, UniProt P19327)
Sequence (P19327 1-422): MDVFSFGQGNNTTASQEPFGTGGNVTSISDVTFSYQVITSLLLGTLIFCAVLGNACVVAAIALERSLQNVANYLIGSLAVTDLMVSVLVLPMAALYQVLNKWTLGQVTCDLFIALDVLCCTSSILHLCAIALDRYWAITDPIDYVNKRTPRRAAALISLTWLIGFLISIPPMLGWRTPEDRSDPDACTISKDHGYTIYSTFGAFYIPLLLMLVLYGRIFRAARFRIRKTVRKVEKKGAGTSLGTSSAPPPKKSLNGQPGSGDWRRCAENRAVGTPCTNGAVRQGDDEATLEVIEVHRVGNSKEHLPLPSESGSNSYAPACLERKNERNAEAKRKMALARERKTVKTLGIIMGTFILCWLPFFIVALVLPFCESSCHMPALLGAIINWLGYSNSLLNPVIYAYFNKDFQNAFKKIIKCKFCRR
ASSAY_PROCEDURE: Inhibition of 3H-8-OH-DPAT binding to serotonin 5-HT1A receptors in rat brain in vitro
Parameters: 5-HT1A receptors in membranes from rat brain minus cerebellum; from tissue; host or cells: brain minus cerebellum of male Wistar (Mol:Wist) rats, crude membranes; species or system rat (male Wistar)
CONDITION_INFO: 3H 8-OH DPAT binding IC50, 1 nM 3H-8-OH-DPAT, rat brain minus cerebellum membranes, 37° C., 15 min
The compounds listed here are annotated with their pIC50.
On this scale, pIC50 is minus log10 of a concentration expressed in M (mol/L).

**Q:** Any idea what its pIC50 is? The compound is CCCN(CCC)CC1CCc2cc(Cl)c(NC(C)=O)cc21 (single isomer, unassigned; (-)) [Compound 11b]
**A:** 7.82

**Q:** Param item = CCCN(CCC)CC1CCc2ccc(NS(C)(=O)=O)cc21 (stereo not shown) ; retrieve measured pIC50.
**A:** 7.80

**Q:** What value of measured pIC50 is listed for CC(=O)Nc1ccc2c(c1)C(CN(C)CCCCCCN1CCN(C3CCCC3)C1=O)CC2 (stereo not shown) [Compound 13j] ?
**A:** 8.49

**Q:** // returns reported pIC50 for input CC(=O)Nc1ccc2c(c1)C(CN1CCCCC1)CS2 (stereo not shown)
**A:** 8.20

**Q:** GET /values?readout=pIC50&item= CCCN(CCC)CC1CCc2ccc(NC(=O)NC3CCCC3)cc21 (stereo not shown)
**A:** 6.77
